biological target: histamine H1 receptor (Homo sapiens)
Sequence (P35367 whole entry): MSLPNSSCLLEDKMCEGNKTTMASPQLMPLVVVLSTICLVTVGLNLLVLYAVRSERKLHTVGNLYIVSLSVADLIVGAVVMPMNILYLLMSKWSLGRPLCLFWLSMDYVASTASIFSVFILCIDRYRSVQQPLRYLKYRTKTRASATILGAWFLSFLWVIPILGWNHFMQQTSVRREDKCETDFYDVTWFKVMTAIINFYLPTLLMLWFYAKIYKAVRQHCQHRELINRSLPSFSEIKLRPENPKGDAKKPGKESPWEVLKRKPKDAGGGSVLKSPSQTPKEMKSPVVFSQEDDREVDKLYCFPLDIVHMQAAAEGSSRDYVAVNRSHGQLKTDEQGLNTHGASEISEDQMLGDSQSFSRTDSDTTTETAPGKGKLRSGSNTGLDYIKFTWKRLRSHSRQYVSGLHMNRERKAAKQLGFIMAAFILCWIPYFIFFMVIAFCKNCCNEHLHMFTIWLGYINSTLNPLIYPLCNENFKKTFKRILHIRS
metric-name: Ki

Input: Form field - read-out: Ki; system: histamine H1 receptor (Homo sapiens); submitted item: NCCc1c[nH]c2ccc(O)cc12
Output: > 10 µM
